# combination Emax per entry
System: G-361 (Melanoma)
experiment summary: combination Emax (second highest fraction inhibited in the dose matrix, 72 h); higher = more inhibition; extreme values may be limits of the assay
Please give the numeric answer without any surrounding text.

Below: 5 compounds and their reported combination Emax.
Requested read-out: combination Emax. Entry: CN(C)CCCOc1ccc(-c2ccc3ncc4c(c3c2)n(C2CCOCC2)c(=O)n4C)cn1 [AZD0156] + C[C@@H]1COCCN1C2=NC(=NC(=C2)C3(CC3)[S@](=N)(=O)C)C4=C5C=CNC5=NC=C4 [AZD6738] (first compound max 1 µM, 7x7, partner max 10 µM)
0.628

Requested read-out: combination Emax. Entry: CC1(C)CCC(CN2CCN(c3ccc(C(=O)NS(=O)(=O)c4ccc(NCC5CCOCC5)c([N+](=O)[O-])c4)c(Oc4cnc5[nH]ccc5c4)c3)CC2)=C(c2ccc(Cl)cc2)C1 [Venetoclax] + CCN(CCO)CCCOc1ccc2c(Nc3cc(CC(=O)Nc4cccc(F)c4)[nH]n3)ncnc2c1 [AZD2811] (first compound max 1 µM, 7x7, partner max 1 µM)
0.285

Requested read-out: combination Emax. Entry: COc1cc2c(cc1OCCCCCOc1cc3c(cc1OC)C(=O)N1C=C(C)C[C@H]1C=N3)N=C[C@@H]1CC(C)=CN1C2=O [SG3199] + O=C(c1cc(Cc2n[nH]c(=O)c3ccccc23)ccc1F)N1CCN(C(=O)C2CC2)CC1 [Olaparib] (first compound max 0.001 µM, 7x7, partner max 10 µM)
0.0716

Requested read-out: combination Emax. Entry: Cn1cnc2c(F)c(Nc3ccc(Br)cc3Cl)c(C(=O)NOCCO)cc21 [Selumetinib] + C=CCn1c(=O)c2cnc(Nc3ccc(N4CCN(C)CC4)cc3)nc2n1-c1cccc(C(C)(C)O)n1 [AZD1775] (first compound max 10 µM, partner max 1 µM)
0.826

Requested read-out: combination Emax. Entry: NC1(C(=O)N[C@@H](CCO)c2ccc(Cl)cc2)CCN(c2ncnc3[nH]ccc23)CC1 [Capivasertib] + C[C@@H]1COCCN1C2=NC(=NC(=C2)C3(CC3)[S@](=N)(=O)C)C4=C5C=CNC5=NC=C4 [AZD6738] (first compound max 10 µM, 7x7, partner max 10 µM)
0.614

---
Requested read-out: combination Emax. Entry: CC1(C)CCC(CN2CCN(c3ccc(C(=O)NS(=O)(=O)c4ccc(NCC5CCOCC5)c([N+](=O)[O-])c4)c(Oc4cnc5[nH]ccc5c4)c3)CC2)=C(c2ccc(Cl)cc2)C1 [Venetoclax] + C[C@@H](Nc1cc(F)cc(F)c1)c1cc(C(=O)N(C)C)cc2c(=O)cc(N3CCOCC3)oc12 [AZD8186] (first compound max 1 µM, 7x7, partner max 3 µM)
0.248

Requested read-out: combination Emax. Entry: Cc1c2c(nn1C)CSCc1cc(n(C)n1)CSc1cc(c3ccccc3c1)OCCCc1c(C(=O)O)n(C)c3c-2c(Cl)ccc13 [AZD5991] + C=CCn1c(=O)c2cnc(Nc3ccc(N4CCN(C)CC4)cc3)nc2n1-c1cccc(C(C)(C)O)n1 [AZD1775] (first compound max 1 µM, partner max 1 µM)
0.967

* * *

Tested on: DAN-G (Pancreatic Carcinoma)
experiment summary: Bliss excess, mean over the matrix (fraction); higher = more synergy
endpoint label: Bliss excess
Please give the numeric answer without any surrounding text.

Requested read-out: Bliss excess. Entry: CC1(C)CCC(CN2CCN(c3ccc(C(=O)NS(=O)(=O)c4ccc(NCC5CCOCC5)c([N+](=O)[O-])c4)c(Oc4cnc5[nH]ccc5c4)c3)CC2)=C(c2ccc(Cl)cc2)C1 [Venetoclax] + Cn1cnc2c(F)c(Nc3ccc(Br)cc3Cl)c(C(=O)NOCCO)cc21 [Selumetinib] (first compound max 1 µM, 7x7, partner max 3 µM)
-0.0459

Requested read-out: Bliss excess. Entry: Cc1cc2ncnn2cc1Nc1ncc2c(n1)n(C1CCOCC1)c(=O)n2C [AZD7648] + C[C@@H]1COCCN1C2=NC(=NC(=C2)C3(CC3)[S@](=N)(=O)C)C4=C5C=CNC5=NC=C4 [AZD6738] (first compound max 10 µM, 7x7, partner max 10 µM)
-0.0093

Requested read-out: Bliss excess. Entry: Cn1cnc2c(F)c(Nc3ccc(Br)cc3Cl)c(C(=O)NOCCO)cc21 [Selumetinib] + CC(C)n1c(=O)n(C)c2cnc3cc(F)c(-c4ccc(OCCCN5CCCCC5)nc4)cc3c21 [AZD1390] (first compound max 10 µM, 7x7, partner max 0.3 µM)
-0.0484

Could you now look at the following compound, please?
Requested read-out: Bliss excess. Entry: C=CCn1c(=O)c2cnc(Nc3ccc(N4CCN(C)CC4)cc3)nc2n1-c1cccc(C(C)(C)O)n1 [AZD1775] + O=C(c1cc(Cc2n[nH]c(=O)c3ccccc23)ccc1F)N1CCN(C(=O)C2CC2)CC1 [Olaparib] (first compound max 1 µM, partner max 10 µM)
-0.0142

* * *

# combination Emax per entry
Tested on: DMS-114 (Small Cell Lung Carcinoma)
experiment summary: combination Emax (second highest fraction inhibited in the dose matrix, 72 h); higher = more inhibition; extreme values may be limits of the assay
Please give the numeric answer without any surrounding text.

Which combination Emax is reported with DMS-114 (Small Cell Lung Carcinoma) for this entry: CC(=O)c1c(C)c2cnc(Nc3ccc(N4CCNCC4)cn3)nc2n(C2CCCC2)c1=O [Palbociclib] + Cc1c2c(nn1C)CSCc1cc(n(C)n1)CSc1cc(c3ccccc3c1)OCCCc1c(C(=O)O)n(C)c3c-2c(Cl)ccc13 [AZD5991] (first compound max 10 µM, 7x7, partner max 1 µM) ?
0.49

Could you now look at the following compound, please?
Which combination Emax is reported with DMS-114 (Small Cell Lung Carcinoma) for this entry: Cc1c2c(nn1C)CSCc1cc(n(C)n1)CSc1cc(c3ccccc3c1)OCCCc1c(C(=O)O)n(C)c3c-2c(Cl)ccc13 [AZD5991] + C[C@@H]1COCCN1C2=NC(=NC(=C2)C3(CC3)[S@](=N)(=O)C)C4=C5C=CNC5=NC=C4 [AZD6738] (first compound max 1 µM, 7x7, partner max 10 µM) ?
0.815

* * *

# Bliss excess per entry
System: SK-GT-4 (Esophageal Adenocarcinoma)
experiment summary: Bliss excess, mean over the matrix (fraction); higher = more synergy
Please give the numeric answer without any surrounding text.

Below: 2 compounds and their reported Bliss excess.
Requested read-out: Bliss excess. Entry: Cc1c2c(nn1C)CSCc1cc(n(C)n1)CSc1cc(c3ccccc3c1)OCCCc1c(C(=O)O)n(C)c3c-2c(Cl)ccc13 [AZD5991] + CCN(CCO)CCCOc1ccc2c(Nc3cc(CC(=O)Nc4cccc(F)c4)[nH]n3)ncnc2c1 [AZD2811] (first compound max 1 µM, 7x7, partner max 1 µM)
-0.0303

Requested read-out: Bliss excess. Entry: O=C(c1cc(Cc2n[nH]c(=O)c3ccccc23)ccc1F)N1CCN(C(=O)C2CC2)CC1 [Olaparib] + COc1nnc2ccc(N3CCC(c4ccc(OCCN5CCN(C)C(=O)[C@H]5C)cc4)CC3)nn12 [AZD5153] (first compound max 10 µM, 7x7, partner max 1 µM)
-0.0894

---
Requested read-out: Bliss excess. Entry: CC1(C)CCC(CN2CCN(c3ccc(C(=O)NS(=O)(=O)c4ccc(NCC5CCOCC5)c([N+](=O)[O-])c4)c(Oc4cnc5[nH]ccc5c4)c3)CC2)=C(c2ccc(Cl)cc2)C1 [Venetoclax] + C[C@@H](Nc1cc(F)cc(F)c1)c1cc(C(=O)N(C)C)cc2c(=O)cc(N3CCOCC3)oc12 [AZD8186] (first compound max 1 µM, 7x7, partner max 3 µM)
-0.0263

* * *

Test system: MOLM-13 (Acute Myeloid Leukemia)
experiment summary: Bliss excess, mean over the matrix (fraction); higher = more synergy
endpoint label: Bliss excess
Please give the numeric answer without any surrounding text.

Below: 2 compounds and their reported Bliss excess.
Requested read-out: Bliss excess. Entry: CC(=O)c1c(C)c2cnc(Nc3ccc(N4CCNCC4)cn3)nc2n(C2CCCC2)c1=O [Palbociclib] + CC1(C)CCC(CN2CCN(c3ccc(C(=O)NS(=O)(=O)c4ccc(NCC5CCOCC5)c([N+](=O)[O-])c4)c(Oc4cnc5[nH]ccc5c4)c3)CC2)=C(c2ccc(Cl)cc2)C1 [Venetoclax] (first compound max 10 µM, 7x7, partner max 1 µM)
0.04

Requested read-out: Bliss excess. Entry: NC1(C(=O)N[C@@H](CCO)c2ccc(Cl)cc2)CCN(c2ncnc3[nH]ccc23)CC1 [Capivasertib] + CCN(CCO)CCCOc1ccc2c(Nc3cc(CC(=O)Nc4cccc(F)c4)[nH]n3)ncnc2c1 [AZD2811] (first compound max 10 µM, 7x7, partner max 1 µM)
-0.0086

---
Requested read-out: Bliss excess. Entry: COc1cccc(OCCCN)c1-c1cc(Nc2cnc(C#N)cn2)n[nH]1 [Prexasertib] + Cc1cc2ncnn2cc1Nc1ncc2c(n1)n(C1CCOCC1)c(=O)n2C [AZD7648] (first compound max 1 µM, 7x7, partner max 10 µM)
-0.0094

Requested read-out: Bliss excess. Entry: COc1nnc2ccc(N3CCC(c4ccc(OCCN5CCN(C)C(=O)[C@H]5C)cc4)CC3)nn12 [AZD5153] + C=CCn1c(=O)c2cnc(Nc3ccc(N4CCN(C)CC4)cc3)nc2n1-c1cccc(C(C)(C)O)n1 [AZD1775] (first compound max 1 µM, partner max 1 µM)
-0.0225

// provenance: the supplement of paper PMC11061612
